target: IRAK4 protein in THP-1 cells (Homo sapiens); construct: endogenous in cells; host or cells: THP-1; assay: Degradation of IRAK4 in THP-1 cells (Western blot); format: cell-based; settings: 24 hours, compound 1-3000 nM
Define the label as TRUE when DC50 is strictly less than 3 nM and as FALSE in all remaining cases.

| Compound | Classification |
| --- | --- |
| COc1cc2nn([C@H]3CC[C@H](CN(C)CCC4CCN(C(=O)c5ccc(Cl)c(N6CCC(=O)NC6=O)c5)CC4)CC3)cc2cc1NC(=O)c1cccc(C(F)(F)F)n1 | TRUE |
| CCOc1ccc(C(=O)N2CCC3(CC2)CC(CCN2CCC(n4cc5cc(NC(=O)c6cccc(C(F)(F)F)n6)c(C(C)(C)O)cc5n4)CC2)C3)cc1N1CCC(=O)NC1=O | TRUE |
| CC(C)(O)c1cc2nn(C3CCN(CC4CCC5(CC4)CCN(C(=O)c4ccc(F)c(C6CCC(=O)NC6=O)c4)CC5)CC3)cc2cc1NC(=O)c1cccc(C(F)(F)F)n1 (centres unmarked) | TRUE |
| COc1cc2nn(C3CCN(CC4CCN(CCOc5ccc6c(c5)C(=O)N(C5CCC(=O)NC5=O)C6=O)CC4)CC3)cc2cc1NC(=O)c1cccc(C(F)(F)F)n1 (centres unmarked) [Control group 2, reference compound] | FALSE |
| CC(C)(O)c1cc2nn(C3CCN(CC4CC5(CCN(C(=O)c6ccc(Cl)c(N7CCC(=O)NC7=O)c6)CC5)C4)CC3)cc2cc1NC(=O)c1cccc(C(F)(F)F)n1 | FALSE |

###

Molecular target: IRAK4 protein in THP-1 cells (Homo sapiens)
Construct: endogenous in cells; host or cells: THP-1
Sequence (Q9NWZ3 1-460): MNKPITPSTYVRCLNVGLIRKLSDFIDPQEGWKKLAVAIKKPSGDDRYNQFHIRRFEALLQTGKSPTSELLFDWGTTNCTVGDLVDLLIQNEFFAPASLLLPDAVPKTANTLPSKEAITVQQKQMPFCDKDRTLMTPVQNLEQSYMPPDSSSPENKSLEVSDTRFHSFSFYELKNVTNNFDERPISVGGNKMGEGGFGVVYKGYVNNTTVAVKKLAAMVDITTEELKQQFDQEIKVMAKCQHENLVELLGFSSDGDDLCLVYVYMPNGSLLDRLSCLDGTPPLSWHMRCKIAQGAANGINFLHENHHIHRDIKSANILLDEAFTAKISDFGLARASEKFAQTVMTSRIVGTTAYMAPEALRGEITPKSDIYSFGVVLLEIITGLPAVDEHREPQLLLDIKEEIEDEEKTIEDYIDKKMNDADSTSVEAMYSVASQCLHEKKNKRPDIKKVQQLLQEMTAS
Test: Degradation of IRAK4 in THP-1 cells (Western blot)
Type: cell-based
Conditions: 24 hours, compound 1-3000 nM
// boundary case: DC50 equal to 10 nM maps to Condition not met; strictly smaller maps to Condition met

| Smiles | Classification |
| --- | --- |
| COc1cc2nn(C3CCN(CCCN4CCN(C(=O)c5ccc(OC)c(N6CCC(=O)NC6=O)c5)CC4)CC3)cc2cc1NC(=O)c1cccc(C(F)(F)F)n1 | Condition not met |
| COc1ccc(C(=O)N2CCC(CCN3CCC(n4cc5cc(NC(=O)c6cccc(C(F)(F)F)n6)c(C(C)(C)O)cc5n4)CC3)CC2)cc1N1CCC(=O)NC1=O | Condition met |
| CCN(C1CCC2(CC1)CCN(C(=O)c1ccc(Cl)c(N3CCC(=O)NC3=O)c1)CC2)[C@H]1CC[C@H](n2cc3cc(NC(=O)c4cccc(C(F)(F)F)n4)c(OC)cc3n2)CC1 | Condition met |
| CC(C)(O)c1cc2nn(C3CCN(CCC4CCN(C(=O)c5ccc(Cl)c(N6CCC(=O)NC6=O)c5)CC4)CC3)cc2cc1NC(=O)c1cccc(C(F)(F)F)n1 | Condition met |
| COc1cc2nn([C@H]3CC[C@H](CN(C)C4CCN(C5CCN(C(=O)c6ccc(Cl)c(N7CCC(=O)NC7=O)c6)CC5)CC4)CC3)cc2cc1NC(=O)c1cccc(C(F)(F)F)n1 | Condition not met |
| COc1cc2nn(C3CCN(CCN4CCC5(CC4)CCN(C(=O)c4ccc(OC)c(N6CCC(=O)NC6=O)c4)CC5)CC3)cc2cc1NC(=O)c1cccc(C(F)(F)F)n1 | Condition met |
| COc1cc2nn(C3CCN(CCC4CCN(C(=O)c5ccc(OC)c(N6CCC(=O)NC6=O)c5)CC4)CC3)cc2cc1NC(=O)c1cccc(C(F)(F)F)n1 | Condition not met |
| COc1cc2nn(C3CCN(CCCCCN(C)C(=O)c4ccc(OC)c(N5CCC(=O)NC5=O)c4)CC3)cc2cc1NC(=O)c1cccc(C(F)(F)F)n1 | Condition not met |
| COc1cc2nn(C3CCN(CCC4CCC5(CC4)CCN(C(=O)c4cccc(N6CCC(=O)NC6=O)c4)CC5)CC3)cc2cc1NC(=O)c1cccc(C(F)(F)F)n1 | Condition met |
| COc1cc2nn(C3CCN(CCC4CCC5(CC4)CCN(C(=O)c4ccc(F)c(N6CCC(=O)NC6=O)c4)CC5)CC3)cc2cc1NC(=O)c1cccc(C(F)(F)F)n1 | Condition met |
| COc1cc2nn(C3CCN(CC4CC5(CCN(C(=O)c6ccc(Cl)c(N7CCC(=O)NC7=O)c6)CC5)C4)CC3)cc2cc1NC(=O)c1cccc(C(F)(F)F)n1 | Condition not met |

Source: patent US20230234936A1
